target: T1, mouse TrkB monomer (His ECD) (mouse, UniProt P15209 32-429); assay: SPR (Biacore), Fab over amine-coupled TrkB His ECD monomer, 25 C
T1 construct: extracellular domain; amine-coupled to the chip
T1 sequence (P15209 32-429): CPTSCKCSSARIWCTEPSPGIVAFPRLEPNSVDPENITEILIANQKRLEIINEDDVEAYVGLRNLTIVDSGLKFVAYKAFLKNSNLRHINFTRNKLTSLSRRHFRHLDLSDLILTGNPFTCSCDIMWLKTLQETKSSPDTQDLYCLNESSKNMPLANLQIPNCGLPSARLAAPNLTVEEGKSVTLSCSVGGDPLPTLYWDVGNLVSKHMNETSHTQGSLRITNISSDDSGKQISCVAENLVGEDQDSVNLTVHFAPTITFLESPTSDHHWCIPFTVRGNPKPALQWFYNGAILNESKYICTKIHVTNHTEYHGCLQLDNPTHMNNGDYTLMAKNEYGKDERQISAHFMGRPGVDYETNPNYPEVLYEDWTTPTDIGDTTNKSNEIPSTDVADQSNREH
Recorded kon values for a group of binders are listed next.
# value in M⁻¹ s⁻¹; strip the unit string

Check out these entries, answers already filled in.
binder: 4A6 (Fab, V domains shown, Fab) VH: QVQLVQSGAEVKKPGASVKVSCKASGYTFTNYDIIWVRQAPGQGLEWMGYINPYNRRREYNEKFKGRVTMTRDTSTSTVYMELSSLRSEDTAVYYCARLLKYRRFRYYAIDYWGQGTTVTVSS VL: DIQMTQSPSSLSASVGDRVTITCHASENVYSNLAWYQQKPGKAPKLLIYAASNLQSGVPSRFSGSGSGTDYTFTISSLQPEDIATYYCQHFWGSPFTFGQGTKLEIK
quantityUnit: M⁻¹ s⁻¹
kon: 4.35e+06

binder: C2 (Fab, V domains shown, Fab) VH: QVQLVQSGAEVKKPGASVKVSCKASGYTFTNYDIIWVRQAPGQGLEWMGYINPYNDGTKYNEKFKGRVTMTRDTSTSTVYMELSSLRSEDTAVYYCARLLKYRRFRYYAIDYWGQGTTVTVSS VL: DIQMTQSPSSLSASVGDRVTITCRTSENVYSNLAWYQQKPGKAPKLLIYAASNLQSGVPSRFSGSGSGTDYTFTISSLQPEDIATYYCQHFWGSPFTFGQGTKLEIK
quantityUnit: M⁻¹ s⁻¹
kon: 510000

binder: 4B12 (Fab, V domains shown, Fab) VH: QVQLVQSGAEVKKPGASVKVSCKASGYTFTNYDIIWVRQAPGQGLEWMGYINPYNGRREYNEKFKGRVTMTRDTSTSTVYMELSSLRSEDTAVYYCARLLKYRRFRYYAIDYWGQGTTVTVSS VL: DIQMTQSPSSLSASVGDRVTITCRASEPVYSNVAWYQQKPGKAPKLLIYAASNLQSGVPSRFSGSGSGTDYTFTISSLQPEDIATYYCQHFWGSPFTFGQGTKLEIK
quantityUnit: M⁻¹ s⁻¹
kon: 2.38e+06

What measured kon goes with A2 (Fab, V domains shown, Fab) VH: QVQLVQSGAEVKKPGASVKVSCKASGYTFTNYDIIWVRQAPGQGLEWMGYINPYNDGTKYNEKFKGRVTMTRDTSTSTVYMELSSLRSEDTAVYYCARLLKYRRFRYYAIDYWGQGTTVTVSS VL: DIQMTQSPSSLSASVGDRVTITCRASENVYSNLAWYQQKPGKAPKLLIYAASNLQSGVPSRFSGSGSGTDYTFTISSLQPEDIATYYCQHFWYSPWTFGQGTKLEIK ?
1.24e+06
